The reported numbers originate from PubChem BioAssay AID1159558.

Target: Sterol 14-alpha demethylase (Trypanosoma cruzi (strain CL Brener))
Test: TcCYP51 inhibitors, dose response, mechanism study for T. cruzi antiparasitic project, biochemical, recombinant enzyme (AID 1159558);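 also: enzyme in bacterial membranes with Anopheles gambiae CYP reductase and cytochrome b5 partners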
Settings: recombinant T. cruzi CYP51, BOMCC fluorescence
Activity calls are given as the source filed them.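 The calls were made as follows: active = IC50 against T. cruzi CYP51 below a set limit; inactive = the rest.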
Hi! Could you answer with just one of these? active, inactive

Worked set:
Compound: CNc1cc(Cn2c(C(=O)c3cc(C)cc(Cl)c3)c(C(C)C)c(=O)[nH]c2=O)ccn1
Assigned label: active
//
Compound: COc1ccc2ncc(=O)n(CCN3CC[C@H](NCc4ncc(Cl)c5[nH]ncc45)[C@H](O)C3)c2n1
Assigned label: inactive
//
Compound: COc1ccc(C(C)(C)C)cc1S(=O)(=O)n1ccnc1
Assigned label: active

Asked: Just curious, what result did CCCc1cc(N)nc(-c2cc(CCC)cc(N)n2)c1 get here?
Given back: inactive

Asked: Give the logged outcome of this assay for the following compound: O=C(NC(CO)c1ccc(F)cc1)c1ccc(-c2c[nH]c3ncccc23)s1 (stereo not given)
Given back: active

Asked: Which outcome was assigned to CCN(CC)S(=O)(=O)c1ccc(Cn2nc(C(=O)Nc3ccncn3)c3ccccc32)cc1 in this test?
Given back: active

Asked: Outcome logged for CC(C)Nc1nccc(-c2c(-c3ccc(F)cc3)ncn2C2CCOCC2)n1 in this assay:
Given back: inactive

###

Molecular target: Sterol 14-alpha demethylase (Trypanosoma cruzi (strain CL Brener)) (UniProt Q7Z1V1)
Sequence (Q7Z1V1 whole entry, looked up): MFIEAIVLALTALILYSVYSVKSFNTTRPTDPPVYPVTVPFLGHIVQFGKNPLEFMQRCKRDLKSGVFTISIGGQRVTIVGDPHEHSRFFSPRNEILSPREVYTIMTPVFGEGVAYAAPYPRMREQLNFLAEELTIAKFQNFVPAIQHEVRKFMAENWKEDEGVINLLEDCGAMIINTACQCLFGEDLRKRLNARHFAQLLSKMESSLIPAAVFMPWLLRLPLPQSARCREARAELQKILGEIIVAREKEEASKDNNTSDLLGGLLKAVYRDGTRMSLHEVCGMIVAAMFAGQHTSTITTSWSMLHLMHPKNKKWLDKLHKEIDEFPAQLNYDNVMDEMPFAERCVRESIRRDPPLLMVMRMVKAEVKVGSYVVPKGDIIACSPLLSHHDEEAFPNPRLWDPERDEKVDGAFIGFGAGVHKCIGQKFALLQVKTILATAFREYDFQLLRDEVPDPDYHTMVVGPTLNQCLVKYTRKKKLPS
Experiment: TcCYP51 inhibitors, dose response, mechanism study for T. cruzi antiparasitic project, biochemical, recombinant enzyme (AID 1159558)
Conditions: recombinant T. cruzi CYP51, BOMCC fluorescence
Active and inactive are the calls of the source.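 Rule for the calls: active = IC50 against T. cruzi CYP51 below a set limit; inactive = the rest.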
Return exactly one item of active, inactive

Examples from the recorded data:
Compound: OCCCNc1nc(Nc2ccncc2)nc2ccccc12
Assigned label: inactive
--
Compound: CC(C)c1cc(C(=O)N2CCCC(c3cc4ncccc4[nH]3)C2)on1 (stereo unspecified)
Assigned label: active
--
Compound: COc1ccc(C(=O)Nc2ccc(NC(=O)CO)cc2)cc1
Assigned label: inactive

Asked: Hello, I am checking results. What call was entered for Cc1nc(-c2ccc3c(c2)OCO3)sc1C(=O)NCc1ccc2c(c1)OCO2 ?
Given back: active

Asked: What call does the record list for CS(=O)(=O)c1ccc(Nc2nccc(Nc3n[nH]c4ccc(F)cc34)n2)c(F)c1 ?
Given back: active

Asked: Could you please tell me the result logged for O=C(NCCc1cccnc1)c1csc(-c2ccccc2)n1 in this assay?
Given back: active

###

Target: Sterol 14-alpha demethylase (Trypanosoma cruzi (strain CL Brener))
Test: TcCYP51 inhibitors, dose response, mechanism study for T. cruzi antiparasitic project, biochemical, recombinant enzyme (AID 1159558)
Settings: recombinant T. cruzi CYP51, BOMCC fluorescence
pIC50: −log10 of the molar value.
Classify by measured pIC50: MET if it is equal to or exceeds 5, NOT MET if it is smaller.

Asked: Would you say NCC(Cc1ccccc1)NC(=O)c1cnc(-c2c[nH]c3ncccc23)s1 (stereo unspecified) shows pIC50 at minimum 5?
Given back: MET

Asked: Please tell me: is the compound CC(c1ccc2c(c1)CCCC2)N(C)c1ncc2c(N)nc(N)nc2n1 (stereo unspecified) at or over 5 in terms of pIC50?
Given back: NOT MET

Asked: Quick check: does Cc1cc(NC(=O)C2CC2)ccc1OC1CCN(Cc2ccco2)CC1 have pIC50 greater than or equal to 5?
Given back: NOT MET

Asked: I'd appreciate it if you could say whether O=C(CSc1ccc(F)cc1)N[C@@H](Cc1cnc[nH]1)C(=O)NCCc1ccccc1 has pIC50 at least equal to 5.
Given back: MET

Asked: Check the entry Cc1cccnc1NC(=O)c1cccc(OCc2c(C)noc2C)c1 : does pIC50 equal or exceed 5?
Given back: NOT MET

Asked: Item CC(C)c1cc(Nc2cc(Cc3ccccc3)nc(NC3CCC(O)CC3)n2)n[nH]1 (stereo unspecified) with pIC50 of 5 or above?
Given back: NOT MET

###

Target: Sterol 14-alpha demethylase (Trypanosoma cruzi (strain CL Brener)) (UniProt Q7Z1V1)
Assay: TcCYP51 inhibitors, dose response, mechanism study for T. cruzi antiparasitic project, biochemical, recombinant enzyme (AID 1159558);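 also: enzyme in bacterial membranes with Anopheles gambiae CYP reductase and cytochrome b5 partners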
Conditions: recombinant T. cruzi CYP51, BOMCC fluorescence
Activity calls are given as the source filed them.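 Rule for the calls: active = IC50 against T. cruzi CYP51 below a set limit; inactive = the rest.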
Classes to choose from: active, inactive

Illustrative cases are given below, each with its answer.
Smiles entry: O=C(CN(Cc1ccccn1)Cc1ccccn1)NCc1ccc(-c2csnn2)cc1
Assigned label: active
//
Smiles entry: CC(C)n1c(-c2nonc2N)nc2cccc(OCCN3CCCC3)c21
Assigned label: active
//
Smiles entry: Cc1nn(-c2nc(N)nc(-c3ccccn3)n2)c(C)c1Cc1ccccc1
Assigned label: active
//
Smiles entry: CC(C)(C)c1csc(NC(=O)c2ccc([N+](=O)[O-])s2)n1
Assigned label: active
//
Smiles entry: Cn1nc(C(=O)N2CCc3ccccc32)c2c1CCS(=O)(=O)C2
Assigned label: inactive
//
Smiles entry: CN(C)CCN(C)Cc1ccc(Cl)cc1NS(=O)(=O)c1ccc(Cl)c(Cl)c1
Assigned label: active
//
Smiles entry: COc1ccc2ncc(Cl)c(CCN3CC[C@@H](NCc4cc5c(cn4)OCS5)[C@H](O)C3)c2n1
Assigned label: active
//
Smiles entry: CC(C)Oc1cccc(N2CCC(C(=O)N3CCCN(C(C)C)CC3)CC2)c1
Assigned label: inactive

Asked: Call for entry CNS(=O)(=O)c1ccccc1Nc1nc(Nc2ccnn2C)ncc1Cl :
Given back: active

Asked: Hi, do you know how CS(=O)(=O)c1cccc(CNC(=O)c2cncc(N3CCN(c4ccc(F)cc4)CC3)c2)c1 came out in this test?
Given back: active

###

Target: Sterol 14-alpha demethylase (Trypanosoma cruzi (strain CL Brener))
Experiment: TcCYP51 inhibitors, dose response, mechanism study for T. cruzi antiparasitic project, biochemical, recombinant enzyme (AID 1159558);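 also: enzyme in bacterial membranes with Anopheles gambiae CYP reductase and cytochrome b5 partners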
Settings: recombinant T. cruzi CYP51, BOMCC fluorescence
Calls of active or inactive are those of the source.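 How the source made its calls: active means IC50 against T. cruzi CYP51 below a set limit; inactive means the rest.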
Respond only with the outcome that fits, drawn from active, inactive

Asked: Status in this test for N#Cc1cnc(Nc2cccc(CCN3CCOCC3)c2)nc1Nc1ccccc1C(N)=O ?
Given back: active

Asked: Please indicate how the test categorized Clc1cc(Br)ccc1OCCCCn1ccnc1 .
Given back: active

Asked: Hi, sorry to bother you, what did the test record for CCc1cc(C(=O)Nc2nccn2-c2ccccc2)cs1 ?
Given back: inactive

Asked: Query: recorded result category for Cc1cccc(N2CCCN(Cc3c[nH]c4ccccc34)CC2)n1 in this test
Given back: inactive

Asked: Could you check what this test reported for O=C(c1cccc(Cl)c1Cl)N1CCn2c1nc(-c1ccncc1)cc2=O ?
Given back: active

Asked: Please indicate how the test categorized Cc1ccc(CNC2CCN(C[C@@H]3Cn4c(=O)ccc5ccc(=O)n3c54)CC2)cc1F .
Given back: inactive

Asked: # outcome recorded in this test, key = Cc1cc(NC(=O)C2CCCCC2)n(-c2nc3c(c(=O)[nH]2)CCC3)n1
Given back: inactive

Asked: // param item: CCC(CC)C(=O)Nc1ccc(-c2nnc(-c3ccc(OC)cc3)o2)cc1 ; yields the recorded call
Given back: active

Asked: So what was the verdict on CN(C)S(=O)(=O)c1ccc(Cl)c(C(=O)Nc2nc(-c3ccccn3)cs2)c1 in this test?
Given back: active

Asked: Short answer needed: outcome of this test for Cn1c(CC(=O)NNC(=O)c2ccc3ccccc3n2)nc2ccccc21 ?
Given back: active

Asked: Hey, what did the test say about Cc1nn(C)c(Cl)c1CN(Cc1cccnc1)Cc1ccsc1 ?
Given back: active

###

Molecular target: Sterol 14-alpha demethylase (Trypanosoma cruzi (strain CL Brener))
Assay: TcCYP51 inhibitors, dose response, mechanism study for T. cruzi antiparasitic project, biochemical, recombinant enzyme (AID 1159558);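 also: enzyme in bacterial membranes with Anopheles gambiae CYP reductase and cytochrome b5 partners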
Details: recombinant T. cruzi CYP51, BOMCC fluorescence
Activity calls are given as the source filed them.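 Rule for the calls: active = IC50 against T. cruzi CYP51 below a set limit; inactive = the rest.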
Outcomes you can answer with include only these: Yes = active, No = inactive

Illustrative cases are given below, each with its answer.
Molecule: C=CCN(Cc1cccs1)C(=O)CSc1nnc(-c2ccc3c(c2)OCO3)o1
Assigned label: Yes
--
Molecule: COc1cc(C2SCC(=O)Nc3c2c(C)nn3-c2nc3ccccc3s2)cc(OC)c1O (configuration not stated)
Assigned label: Yes
--
Molecule: COc1ccc(C(=O)[C@H]2C[C@@H]2CN(Cc2ccccn2)Cc2ccccn2)cc1
Assigned label: Yes
--
Molecule: O=C(NCCc1ccccc1Cl)c1cccn1-c1cccnc1
Assigned label: Yes
--
Molecule: Nc1cc(-c2ccc3ncnc(N4CCOCC4)c3c2)cnc1N
Assigned label: Yes
--
Molecule: Cc1cc(C)cc(NS(=O)(=O)c2cc(-c3cc(C)[nH]n3)ccc2C)c1
Assigned label: Yes
--
Molecule: COCCn1cnc2cc(NC(=O)C3CCCCC3)cc(C(=O)N3CCc4sccc4C3)c21
Assigned label: Yes
--
Molecule: CNC(=O)C1Cc2ccccc2N1C(=O)COc1cccc(OC)c1 (configuration not stated)
Assigned label: Yes

Asked: // return assay outcome for COc1cc(C(C)C)c(S(C)(=O)=O)cc1C(=O)N1CCN(c2ccccc2Cl)CC1
Given back: No

Asked: Query: recorded result category for Cc1cc(N(C)C)nc2ccc(Cc3cnc(N)nc3N)cc12 in this test
Given back: No

Asked: Tell me the assay call for CN(C)Cc1ccc(N2CCC(NS(=O)(=O)c3ccc(Cl)cc3)CC2)cc1 please.
Given back: No

Asked: Look up the recorded call for CN(Cc1nc2ccc(C(=O)NCC3CCCCC3)cc2[nH]1)C1CCCc2cccnc21 (configuration not stated) in this test.
Given back: Yes

Asked: Entry CC(C)(C)CC(=O)NCCc1csc(-c2ccc(F)cc2)n1 : call = ?
Given back: Yes

Asked: What outcome does the record of this test show for OC[C@@H](Nc1nccc(-c2c(-c3ccc(F)cc3)ncn2C2CCNCC2)n1)c1ccccc1 ?
Given back: Yes

Asked: Assay result, entry Cc1ccc(S(C)(=O)=O)cc1Nc1nccc(-c2sc(N)nc2-c2ccccc2)n1 — outcome?
Given back: No

Asked: State the result this test recorded for O=C1NCc2cccc(Nc3nc(NC4CCC(O)CC4)ncc3Br)c21 (configuration not stated) .
Given back: No

Asked: Hi, sorry to bother you, what did the test record for CN(C)S(=O)(=O)c1ccc(-c2cnc(N)c(-c3nc4ccc(F)cc4[nH]3)c2)cc1 ?
Given back: Yes
